- target of assay: T1, human Ang-2 H375Q (human, UniProt O15123 19-496)
- T1 sequence: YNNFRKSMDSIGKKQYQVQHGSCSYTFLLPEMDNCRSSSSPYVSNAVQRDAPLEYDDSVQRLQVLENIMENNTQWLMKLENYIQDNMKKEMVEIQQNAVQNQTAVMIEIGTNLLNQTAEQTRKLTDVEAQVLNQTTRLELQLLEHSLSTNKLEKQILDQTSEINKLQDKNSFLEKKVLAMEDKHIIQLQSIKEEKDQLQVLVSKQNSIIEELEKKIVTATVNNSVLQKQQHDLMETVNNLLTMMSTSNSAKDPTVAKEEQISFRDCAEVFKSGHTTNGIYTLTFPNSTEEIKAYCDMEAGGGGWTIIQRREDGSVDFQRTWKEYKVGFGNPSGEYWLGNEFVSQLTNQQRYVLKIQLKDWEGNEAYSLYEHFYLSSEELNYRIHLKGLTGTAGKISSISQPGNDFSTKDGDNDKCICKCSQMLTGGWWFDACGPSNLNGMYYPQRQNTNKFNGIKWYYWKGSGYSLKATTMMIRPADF
- assay explanation: ELISA
# maps each entry to its % of binding to human Ang-2

[
  {
    "binder": "mAb 3.19.3 (antibody, V domains shown, Human hybridoma IgG (XenoMouse); also called x3.19) VH: QVQLVESGGGVVQPGRSLRLSCAASGFTFTNYGMHWGRQAPGKGLEWVAVISHDGNNKYYVDSVKGRFTISRDNSKNTLYLQMNSLRAEDTAVYYCAREGIDFWSGLNWFDPWGQGTLVTVSS VL: EIVLTQSPGTLSLSPGERATLSCRASQSITGSYLAWYQQKPGQAPRLLICGASSWATGIPDRFSGSGSGTDFTLTISRLEPEDFAVYYCQQYSSSPITFGQGTRLEIKR",
    "% of binding to human Ang-2": "100%"
  },
  {
    "binder": "mAb 5.35.1 (antibody, V domains shown, Human hybridoma IgG (XenoMouse); also called x5.35) VH: EVQLVESGGGVVRPGGSLRLSCTTSGFTFDDYGMSWVRQAPGKGLEWVSGINWNGGSTVYADSVKGRFTISRDSAKNSLYLQMNSLRAEDTALYHCARNKQWLWYFDLWGRGTLVTVSS VL: EIVMTQSPATLSVSPGERATLSCRASQSVSSNLAWYQQKPGQAPRLLIYGASTRATGIPARFSGSGSGTEFTLTISSLQSEDFAVYYCEQYNNWPLTFGGGTKVEIKR",
    "% of binding to human Ang-2": "100%"
  },
  {
    "binder": "mAb 5.88.3 (antibody, V domains shown, Human hybridoma IgG (XenoMouse); also called x5.88) VH: EVQMVESGGGLVQPGGSLRLSCAASGFTLRSYWMSWVRQAPGKGLEWVANIKEDGSEKYHVDSVKGRFTISRDNAENSLFLQMSSLRAEDTAVYYCARDMEASAGLFDYWGQGTLVTVSS VL: EIVMTQSPATLSVSPGERAILSCRASQSISSNLAWYQQKPGQAPRLLIYGASTRATGIPARFSGSGSGTEFTLTISSLQSEDFAVYYCQQYNYWWTFGQGTKVEIKR",
    "% of binding to human Ang-2": "100%"
  }
]
